Source: ChEMBL document CHEMBL5352390

Test system: Mycobacterium tuberculosis
PROTOCOL_DESCRIPTION: Antimycobacterial activity against Mycobacterium tuberculosis H37Rv harboring qcrB deletion mutant assessed as inhibition of bacterial growth incubated for 7 days by resazurin microplate assay
Type: functional
RECORDED_CONDITIONS: time 7 day
Catalogue of MIC readings, one per entry.

CHEMICAL_STRING: O=C(Cn1cnc2ccccc2c1=O)Nc1ccc(F)cc1
MIC: >32 µM
--
CHEMICAL_STRING: O=C(COc1ncnc2ccccc12)Nc1ccccc1
MIC: 8 µM
--
CHEMICAL_STRING: Cc1ccc(NC(=O)COc2ncnc3ccccc23)cc1
MIC: >32 µM
--
CHEMICAL_STRING: O=C(Cn1cnc2ccccc2c1=O)Nc1ccc(Cl)cc1
MIC: >32 µM
--
CHEMICAL_STRING: COc1ccc(NC(=O)COc2ncnc3ccccc23)cc1
MIC: >32 µM
--
CHEMICAL_STRING: O=C(COc1ncnc2ccccc12)Nc1ccc(OC(F)(F)F)cc1
MIC: >32 µM
